# Experimental target: GI.3 (norovirus GI.3)
# Experiment summary: ELISA
Observable: pEC50
Give bare numbers, as −log10 of the molar value.

Some binders with recorded pEC50:
Problem: Item under review: 156.3 (antibody, V domains shown) VH: QVQLQQWGAGLLKPSETLSLTCAVYGGSFSGYYWSWIRQPPGKGLEWIGEINHSGSTNYNPSLKSRVTISVDTSKNQFSLKLSSVTAADTAVYYCARGLMDVWGQGTLVTVSS VL: AIRMTQSPSSFSASTGDRVTITCRASQGISSYLAWYQQKPGKAPKLLIYAASTLQSGVPSRFSGSGSGTDFTLTISCLQSEDFATYYCQQYYSYPRTFGQGTKLEIK . Reported pEC50?
Solution: 7.33

Problem: Item under review: 310A (antibody, V domains shown) VH: EVQLVESGGGLVRPGESLRLSCVASGFSVSDNYMSWVRQAPGKGLQWVSVIYSGGTTFYTDSVKGRFTISRDKSKNTLFLQMNSLRAEDTAVYFCTRDPSQYYDSRGHYYQTFTPSFDSWGQGTLVTVSS VL: DIQMTQSPSVMSASVGDRVTITCRASQDISDYLAWFQQKPGKVPKRLIYAASSLQNGVPSRFSGSGSGTEFTLTISSLQPEDFATYYCLQHDTYPLTFGGGTKVEIK . Reported pEC50?
Solution: 7.62

Let us examine a further case.
Problem: Item under review: 323A (antibody, V domains shown) VH: QVQLVESGGGVVQPGRSLRLSCAASGFTFSGSSLHWVRQAPGKGLEWVAAISYDGTNTYYADSVKGRFTLSRDNSKNTLYLQMNSLRAEDTAVYYCAKPVLSPFDYWGQGTLVTVSS VL: QSALTQPASVSGSPGQSITISCTGTSSDVGGYNYVSWYQQHPGKAPKLLIYEVSNRPSGVSRRFSGSKSGNTASLTISGLQAEDEADYYCCSYTSSSTEVFGGGTKLTVL . Reported pEC50?
Solution: 8.52

Source of measurements: patent US20210324050A1
